Field: pKi. System: Rho-associated protein kinase 1 (Homo sapiens, UniProt Q13464). Provenance: assorted publications.
pKi: −log10 of the molar value.

- MOLECULE: "CC(=O)N1[C@H](C)CN(c2ccc(N)c(-c3c[nH]c4ncc(Cl)cc34)n2)C[C@@H]1C"
  pKi: "5.30 to 6.30"
- MOLECULE: "CCOC(=O)c1cc2n(n1)C(c1ccc(F)cc1)C(C(=O)Nc1ccc3[nH]ncc3c1)=C(C)N2 (single isomer, unassigned)"
  pKi: "< 6.30"
- MOLECULE: "NC(=O)c1ccc(-c2c[nH]c3ncc(-c4ccc(F)cc4)cc23)cc1"
  pKi: "> 6.30"
- MOLECULE: "NC(=O)c1cccc(-c2c[nH]c3ncc(-c4ccc(F)cc4)cc23)c1"
  pKi: "> 6.30"
- MOLECULE: "C[C@H](Nc1nc(-c2c[nH]c3ncc(Cl)cc23)ncc1F)C(=O)NC1CC1"
  pKi: "5.30 to 6.30"
- MOLECULE: "CS(=O)(=O)Oc1cccc(CC(=O)Nc2nc(-c3c[nH]c4ncccc34)cs2)c1"
  pKi: "> 6.30"
- MOLECULE: "Fc1cnc(-c2c[nH]c3ncc(Cl)cc23)nc1N[C@H]1CCc2ccccc21"
  pKi: "5.30 to 6.30"
- MOLECULE: "CC(=O)N1CCN(C(=O)C(N)Cc2ccc(Oc3ccnc4[nH]cc(C)c34)c(F)c2)CC1 (stereo not shown)"
  pKi: "> 8.52"
- MOLECULE: "CC(=O)N1[C@H](C)CN(c2cccc(-c3c[nH]c4ncc(NC(=O)CN5CCOCC5)cc34)n2)C[C@@H]1C"
  pKi: "5.30 to 6.30"
- MOLECULE: "CN1CCN(S(=O)(=O)c2cccc(CC(=O)Nc3nc(-c4c[nH]c5ncccc45)cs3)c2)CC1"
  pKi: "> 6.30"
- MOLECULE: "CCN1CCC(NC(=O)[C@@H](N)Cc2ccc(Oc3ccnc4[nH]cc(C)c34)c(F)c2)CC1"
  pKi: "> 8.52"
- MOLECULE: "Cc1c[nH]c2nccc(Oc3ccc(CC(CN)C(=O)N4CCN(C)CC4)cc3)c12 (stereo not shown)"
  pKi: "> 8.52"
- MOLECULE: "CNC(=O)[C@H](C)Nc1nc(-c2c[nH]c3ncc(Cl)cc23)ncc1F"
  pKi: "5.30 to 6.30"
- MOLECULE: "N#Cc1c[nH]c2ncnc(Oc3ccc(C[C@H](N)C(=O)N4CCN(Cc5ccccc5)CC4)cc3F)c12"
  pKi: "> 8.52"
- MOLECULE: "C[C@H](Nc1nc(-c2c[nH]c3ncc(Cl)cc23)ncc1F)c1ccc(F)cc1"
  pKi: "5.30 to 6.30"
- MOLECULE: "Cc1c[nH]c2nccc(Oc3ccc(CN)cc3)c12"
  pKi: "7.30 to 8.30"

###

Field: pKi. System: Rho-associated protein kinase 1 (Homo sapiens, UniProt Q13464). Provenance: assorted publications.
pKi: −log10 of the molar value.
READOUT_LABEL: pKi

- COMPOUND: "CC(=O)N1[C@H](C)CN(c2cccc(-c3c[nH]c4ncc(C(=O)NCCN5CCOCC5)cc34)n2)C[C@@H]1C"
  TARGET_OF_ASSAY: "Rho-associated protein kinase 1 (Homo sapiens, UniProt Q13464)"
  DATA_VALUE: "5.30 to 6.30"
- COMPOUND: "CNc1cnc2[nH]cc(-c3cccc(N4C[C@@H](C)N(C(C)=O)[C@@H](C)C4)n3)c2c1"
  TARGET_OF_ASSAY: "Rho-associated protein kinase 1 (Homo sapiens, UniProt Q13464)"
  DATA_VALUE: "5.30 to 6.30"
- COMPOUND: "Cc1c[nH]c2nccc(Oc3ccc(C[C@H](N)C(=O)NC4CCCCC4)cc3)c12"
  TARGET_OF_ASSAY: "Rho-associated protein kinase 1 (Homo sapiens, UniProt Q13464)"
  DATA_VALUE: "> 8.52"
- COMPOUND: "CNC(=O)C1(NC(=O)[C@@H](N)Cc2ccc(Oc3ncnc4[nH]cc(C)c34)c(F)c2)CCCCC1"
  TARGET_OF_ASSAY: "Rho-associated protein kinase 1 (Homo sapiens, UniProt Q13464)"
  DATA_VALUE: "> 8.52"
- COMPOUND: "Cc1c[nH]c2nccc(Oc3ccc(C[C@H](N)C(N)=O)cc3F)c12"
  TARGET_OF_ASSAY: "Rho-associated protein kinase 1 (Homo sapiens, UniProt Q13464)"
  DATA_VALUE: "> 8.52"
- COMPOUND: "COCCNC(=O)[C@H](C)Nc1nc(-c2c[nH]c3ncc(Cl)cc23)ncc1F"
  TARGET_OF_ASSAY: "Rho-associated protein kinase 1 (Homo sapiens, UniProt Q13464)"
  DATA_VALUE: "5.30 to 6.30"
- COMPOUND: "CNC(=O)[C@@H](N)Cc1ccc(Oc2ccnc3[nH]cc(C)c23)c(F)c1"
  TARGET_OF_ASSAY: "Rho-associated protein kinase 1 (Homo sapiens, UniProt Q13464)"
  DATA_VALUE: "> 8.52"
- COMPOUND: "Cc1cccc(CN2CCN(C(=O)C(N)Cc3ccc(Oc4ccnc5[nH]cc(C)c45)c(F)c3)CC2)c1 (centres unmarked)"
  TARGET_OF_ASSAY: "Rho-associated protein kinase 1 (Homo sapiens, UniProt Q13464)"
  DATA_VALUE: "> 8.52"
- COMPOUND: "C[C@H](Nc1nc(-c2c[nH]c3ncc(Cl)cc23)ncc1F)C(=O)NCCN"
  TARGET_OF_ASSAY: "Rho-associated protein kinase 1 (Homo sapiens, UniProt Q13464)"
  DATA_VALUE: "5.30 to 6.30"
- COMPOUND: "COc1cccc(CC(=O)Nc2nnc(-c3c[nH]c4ncccc34)s2)c1"
  TARGET_OF_ASSAY: "Rho-associated protein kinase 1 (Homo sapiens, UniProt Q13464)"
  DATA_VALUE: "> 6.30"
- COMPOUND: "Cc1c[nH]c2nccc(Oc3ccc(CC(N)C(=O)NCCCN4CCOCC4)cc3F)c12 (centres unmarked)"
  TARGET_OF_ASSAY: "Rho-associated protein kinase 1 (Homo sapiens, UniProt Q13464)"
  DATA_VALUE: "> 8.52"

###

Field: Ki. System: Rho-associated protein kinase 1 (Homo sapiens, UniProt Q13464). Provenance: assorted publications.

- MOLECULE: "CC(C)COC(=O)Nc1cccc(-c2c[nH]c3ncc(Cl)cc23)n1"
  Ki: "500 to 5000 nM"
- MOLECULE: "CSc1cc2n(n1)C(c1ccc(C(F)(F)F)c(F)c1)C(C(=O)Nc1ccc3cnccc3c1)=C(C)N2 (centres unmarked)"
  Ki: "< 50 nM"
- MOLECULE: "C[C@H](Nc1nc(-c2c[nH]c3ncc(Cl)cc23)ncc1F)C(=O)NC1CCCCC1"
  Ki: "500 to 5000 nM"
- MOLECULE: "N[C@@H](Cc1ccc(Oc2ccnc3[nH]ccc23)cn1)C(=O)N1CCN(Cc2ccccc2)CC1"
  Ki: "> 30 nM"
- MOLECULE: "COCc1c[nH]c2nccc(Oc3ccc(C[C@H](N)C(=O)N4CCN(C)CC4)cc3F)c12"
  Ki: "3 to 30 nM"
- MOLECULE: "C[C@H](Nc1nc(-c2c[nH]c3ncc(Cl)cc23)ncc1F)C(=O)NCCc1ccc(S(N)(=O)=O)cc1"
  Ki: "500 to 5000 nM"
- MOLECULE: "COCCCN1CNCC(Cc2ccc(Oc3ccnc4[nH]cc(C)c34)c(F)c2)C1=O (centres unmarked)"
  Ki: "> 30 nM"
- MOLECULE: "N[C@@H](Cc1ccc(Oc2ccnc3[nH]cc(C4=CCOC4)c23)cc1)C(=O)N1CCN(Cc2ccccc2)CC1"
  Ki: "< 3 nM"
- MOLECULE: "O=C(Cc1cc2c(cc1Cl)OCO2)Nc1nc(-c2c[nH]c3nccc(F)c23)cs1"
  Ki: "< 500 nM"
- MOLECULE: "C[C@H](Nc1nc(-c2c[nH]c3ncc(Cl)cc23)ncc1F)C(=O)NCCCn1ccnc1"
  Ki: "500 to 5000 nM"
- MOLECULE: "CC(=O)N1[C@H](C)CN(c2ccc(-c3nnn[nH]3)c(-c3c[nH]c4ncc(Cl)cc34)n2)C[C@@H]1C"
  Ki: "500 to 5000 nM"
- MOLECULE: "Cc1c[nH]c2nccc(Oc3ccc(C[C@H](N)C(=O)N4C[C@H]5CN(C)C[C@H]5C4)cc3F)c12"
  Ki: "< 3 nM"
- MOLECULE: "CC(C)[C@H](CO)Nc1cccc(-c2c[nH]c3ncc(Cl)cc23)n1"
  Ki: "< 500 nM"
- MOLECULE: "CC(C)N1CCN(S(=O)(=O)c2cccc(CC(=O)Nc3nc(-c4c[nH]c5ncccc45)cs3)c2)CC1"
  Ki: "< 500 nM"
- MOLECULE: "CC(=O)N1CCN(c2cccc(-c3c[nH]c4ncc(Cl)cc34)n2)CC1"
  Ki: "500 to 5000 nM"
- MOLECULE: "COC(=O)c1ccc(-c2c[nH]c3ncc(Cl)cc23)nc1NCc1ccccc1"
  Ki: "500 to 5000 nM"
- MOLECULE: "CN1CCN(CCCOc2cccc(CC(=O)Nc3nc(-c4ccnc(N)c4)cs3)c2)CC1"
  Ki: "< 100 nM"
- MOLECULE: "C[C@H](Nc1cc(CO)nc(-c2c[nH]c3ncc(Cl)cc23)n1)c1ccc(F)cc1"
  Ki: "500 to 5000 nM"
- MOLECULE: "COCCCNC(=O)CC(CN)c1cccc(Oc2ccnc3[nH]cc(C)c23)c1 (centres unmarked)"
  Ki: "5 to 50 nM"
- MOLECULE: "CN1CCC(NC(=O)C(CN)Cc2ccc(Oc3ccnc4[nH]cc(C#N)c34)cc2)CC1 (centres unmarked)"
  Ki: "< 3 nM"
- MOLECULE: "Cc1c[nH]c2nccc(Oc3ccc(C[C@H](N)C(=O)N4CCN(Cc5csnn5)CC4)cc3F)c12"
  Ki: "< 3 nM"
- MOLECULE: "Cc1c[nH]c2nccc(Oc3ccc(C[C@H](N)C(=O)NC4CCN(C)CC4(C)C)cc3F)c12 (single isomer, unassigned)"
  Ki: "< 3 nM"
- MOLECULE: "Cc1c[nH]c2nccc(Oc3ccc(CNC4CCOCC4)cc3)c12"
  Ki: "5 to 50 nM"
